# testedTarget: human GLP1R (hGLP1R) (Homo sapiens, UniProt P43220)
# Sequence (P43220 24-463): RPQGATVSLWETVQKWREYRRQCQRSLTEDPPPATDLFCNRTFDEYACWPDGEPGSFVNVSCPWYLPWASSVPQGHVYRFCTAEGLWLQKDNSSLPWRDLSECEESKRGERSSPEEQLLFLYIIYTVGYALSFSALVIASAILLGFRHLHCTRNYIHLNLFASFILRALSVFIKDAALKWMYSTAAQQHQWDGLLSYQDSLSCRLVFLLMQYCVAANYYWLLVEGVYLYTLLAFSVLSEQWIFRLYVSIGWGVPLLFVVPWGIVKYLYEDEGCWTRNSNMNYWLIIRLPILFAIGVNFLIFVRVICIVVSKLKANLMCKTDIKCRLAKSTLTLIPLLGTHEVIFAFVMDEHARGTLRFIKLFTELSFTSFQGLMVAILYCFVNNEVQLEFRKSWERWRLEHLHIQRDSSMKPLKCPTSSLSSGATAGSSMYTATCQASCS
# experimentalDetails: Human GLP1R cAMP agonist assay (GloSensor)
# Format: cell-based
# protocolConditions: HEK293-SNAP-hGLP1R-GloSensor cells; intracellular cAMP; mean n=3 where SEM is given
# label = True if EC50 < 0.3 nM else False

{"columns": ["compound", "testedTarget", "labelClass"],
 "data": [
  ["Cc1nc(CN2CCC(c3cccc4c3O[C@@](C)(c3ccc(Cl)cc3F)O4)CC2)n(C[C@@H]2CCO2)c1C#CC(=O)O", "human GLP1R (hGLP1R) (Homo sapiens, UniProt P43220)", "True"],
  ["CCc1nc(CN2CCC(c3cccc4c3O[C@@](C)(c3ccc(Cl)cc3F)O4)CC2)n(C[C@@H]2CCO2)c1C(=O)O", "human GLP1R (hGLP1R) (Homo sapiens, UniProt P43220)", "False"],
  ["Cc1nc(CN2CCC(c3cccc4c3O[C@@](C)(c3ccc(Cl)cc3F)O4)CC2)n(C[C@@H]2CCO2)c1/C=C/C(=O)O", "human GLP1R (hGLP1R) (Homo sapiens, UniProt P43220)", "True"],
  ["Cc1nc(CN2CCC(c3cccc4c3O[C@@](C)(c3ccc(Cl)cc3F)O4)CC2)n(C[C@@H]2CCO2)c1CCC(=O)O", "human GLP1R (hGLP1R) (Homo sapiens, UniProt P43220)", "True"],
  ["Cc1nc(CN2CCC(c3cccc4c3O[C@@](C)(c3ccc(Cl)cc3F)O4)CC2)n(C[C@@H]2CCO2)c1C12CC(C(=O)O)(C1)C2 [Compound C-23a]", "human GLP1R (hGLP1R) (Homo sapiens, UniProt P43220)", "False"],
  ["C[C@]1(c2ccc(Cl)cc2F)Oc2cccc(C3CCN(Cc4nc(C(F)(F)F)c(/C=C/C(=O)O)n4C[C@@H]4CCO4)CC3)c2O1", "human GLP1R (hGLP1R) (Homo sapiens, UniProt P43220)", "True"],
  ["Cc1nc(CN2CCC(c3cccc4c3O[C@@](C)(c3ccc(Cl)cc3F)O4)CC2)n(C[C@@H]2CCO2)c1C(=O)O", "human GLP1R (hGLP1R) (Homo sapiens, UniProt P43220)", "False"],
  ["C[C@]1(c2ccc(Cl)cc2F)Oc2cccc(C3CCN(Cc4nc(C(F)(F)F)c(-c5nc(=O)o[nH]5)n4C[C@@H]4CCO4)CC3)c2O1", "human GLP1R (hGLP1R) (Homo sapiens, UniProt P43220)", "False"],
  ["C[C@]1(c2ccc(Cl)cc2F)Oc2cccc(C3CCN(Cc4nc(F)c(/C=C/C(=O)O)n4C[C@@H]4CCO4)CC3)c2O1", "human GLP1R (hGLP1R) (Homo sapiens, UniProt P43220)", "True"],
  ["Cc1nc(CN2CCC(c3cccc4c3O[C@@](C)(c3ccc(Cl)cc3F)O4)CC2)n(C[C@@H]2CCO2)c1/C=C(/F)C(=O)O [Compound C-19a]", "human GLP1R (hGLP1R) (Homo sapiens, UniProt P43220)", "True"],
  ["Cc1nc(CN2CCC(c3cccc4c3O[C@@](C)(c3ccc(Cl)cc3F)O4)CC2)n(C[C@@H]2CCO2)c1C(=O)NCC(=O)O", "human GLP1R (hGLP1R) (Homo sapiens, UniProt P43220)", "False"],
  ["C[C@]1(c2ccc(Cl)cc2F)Oc2cccc(C3CCN(Cc4nc(C(F)(F)F)c(-c5nnn[nH]5)n4C[C@@H]4CCO4)CC3)c2O1", "human GLP1R (hGLP1R) (Homo sapiens, UniProt P43220)", "False"],
  ["Cc1nc(CN2CCC(c3cccc4c3O[C@@](C)(c3ccc(Cl)cc3F)O4)CC2)n(C[C@@H]2CCO2)c1C1CC1C(=O)O (some centres unmarked)", "human GLP1R (hGLP1R) (Homo sapiens, UniProt P43220)", "False"],
  ["Cc1c(-c2cccc(C(=O)O)c2)nc(CN2CCC(c3cccc4c3O[C@@](C)(c3ccc(Cl)cc3F)O4)CC2)n1C[C@@H]1CCO1", "human GLP1R (hGLP1R) (Homo sapiens, UniProt P43220)", "False"],
  ["Cc1nc(CN2CCC(c3cccc4c3O[C@@](C)(c3ccc(Cl)cc3F)O4)CC2)n(C[C@@H]2CCO2)c1-c1nc(=O)o[nH]1", "human GLP1R (hGLP1R) (Homo sapiens, UniProt P43220)", "True"],
  ["CC(Cc1cnc(CN2CCC(c3cccc4c3O[C@@](C)(c3ccc(Cl)cc3F)O4)CC2)n1C[C@@H]1CCO1)C(=O)O (single isomer, unassigned) [Compound C-17b]", "human GLP1R (hGLP1R) (Homo sapiens, UniProt P43220)", "False"],
  ["C[C@]1(c2ccc(Cl)cc2F)Oc2cccc(C3CCN(Cc4nc(C(F)(F)F)c(C(=O)O)n4C[C@@H]4CCO4)CC3)c2O1", "human GLP1R (hGLP1R) (Homo sapiens, UniProt P43220)", "False"],
  ["C[C@]1(c2ccc(Cl)cc2F)Oc2cccc(C3CCN(Cc4nc(-c5nnn[nH]5)c(C(F)(F)F)n4C[C@@H]4CCO4)CC3)c2O1", "human GLP1R (hGLP1R) (Homo sapiens, UniProt P43220)", "False"],
  ["Cc1c(/C=C/C(=O)O)nc(CN2CCC(c3cccc4c3O[C@@](C)(c3ccc(Cl)cc3F)O4)CC2)n1C[C@@H]1CCO1", "human GLP1R (hGLP1R) (Homo sapiens, UniProt P43220)", "False"],
  ["Cc1nc(CN2CCC(c3cccc4c3O[C@@](C)(c3ccc(Cl)cc3F)O4)CC2)n(C[C@@H]2CCO2)c1CC(F)C(=O)O (some centres unmarked)", "human GLP1R (hGLP1R) (Homo sapiens, UniProt P43220)", "True"],
  ["CC(Cc1cnc(CN2CCC(c3cccc4c3O[C@@](C)(c3ccc(Cl)cc3F)O4)CC2)n1C[C@@H]1CCO1)C(=O)O (single isomer, unassigned) [Compound C-17a]", "human GLP1R (hGLP1R) (Homo sapiens, UniProt P43220)", "False"],
  ["Cc1nc(CN2CCC(c3cccc4c3O[C@@](C)(c3ccc(Cl)cc3F)O4)CC2)n(C[C@@H]2CCO2)c1/C=C(\\F)C(=O)O [Compound C-19b]", "human GLP1R (hGLP1R) (Homo sapiens, UniProt P43220)", "False"]
]}
